This listing pairs molecules with measured pIC50.
- tested.on: NaV1.7 (Homo sapiens)
- Construct: expressed in transfected cells; tetracycline-inducible, kept under hygromycin and blasticidin
- Sequence (Q15858 whole entry): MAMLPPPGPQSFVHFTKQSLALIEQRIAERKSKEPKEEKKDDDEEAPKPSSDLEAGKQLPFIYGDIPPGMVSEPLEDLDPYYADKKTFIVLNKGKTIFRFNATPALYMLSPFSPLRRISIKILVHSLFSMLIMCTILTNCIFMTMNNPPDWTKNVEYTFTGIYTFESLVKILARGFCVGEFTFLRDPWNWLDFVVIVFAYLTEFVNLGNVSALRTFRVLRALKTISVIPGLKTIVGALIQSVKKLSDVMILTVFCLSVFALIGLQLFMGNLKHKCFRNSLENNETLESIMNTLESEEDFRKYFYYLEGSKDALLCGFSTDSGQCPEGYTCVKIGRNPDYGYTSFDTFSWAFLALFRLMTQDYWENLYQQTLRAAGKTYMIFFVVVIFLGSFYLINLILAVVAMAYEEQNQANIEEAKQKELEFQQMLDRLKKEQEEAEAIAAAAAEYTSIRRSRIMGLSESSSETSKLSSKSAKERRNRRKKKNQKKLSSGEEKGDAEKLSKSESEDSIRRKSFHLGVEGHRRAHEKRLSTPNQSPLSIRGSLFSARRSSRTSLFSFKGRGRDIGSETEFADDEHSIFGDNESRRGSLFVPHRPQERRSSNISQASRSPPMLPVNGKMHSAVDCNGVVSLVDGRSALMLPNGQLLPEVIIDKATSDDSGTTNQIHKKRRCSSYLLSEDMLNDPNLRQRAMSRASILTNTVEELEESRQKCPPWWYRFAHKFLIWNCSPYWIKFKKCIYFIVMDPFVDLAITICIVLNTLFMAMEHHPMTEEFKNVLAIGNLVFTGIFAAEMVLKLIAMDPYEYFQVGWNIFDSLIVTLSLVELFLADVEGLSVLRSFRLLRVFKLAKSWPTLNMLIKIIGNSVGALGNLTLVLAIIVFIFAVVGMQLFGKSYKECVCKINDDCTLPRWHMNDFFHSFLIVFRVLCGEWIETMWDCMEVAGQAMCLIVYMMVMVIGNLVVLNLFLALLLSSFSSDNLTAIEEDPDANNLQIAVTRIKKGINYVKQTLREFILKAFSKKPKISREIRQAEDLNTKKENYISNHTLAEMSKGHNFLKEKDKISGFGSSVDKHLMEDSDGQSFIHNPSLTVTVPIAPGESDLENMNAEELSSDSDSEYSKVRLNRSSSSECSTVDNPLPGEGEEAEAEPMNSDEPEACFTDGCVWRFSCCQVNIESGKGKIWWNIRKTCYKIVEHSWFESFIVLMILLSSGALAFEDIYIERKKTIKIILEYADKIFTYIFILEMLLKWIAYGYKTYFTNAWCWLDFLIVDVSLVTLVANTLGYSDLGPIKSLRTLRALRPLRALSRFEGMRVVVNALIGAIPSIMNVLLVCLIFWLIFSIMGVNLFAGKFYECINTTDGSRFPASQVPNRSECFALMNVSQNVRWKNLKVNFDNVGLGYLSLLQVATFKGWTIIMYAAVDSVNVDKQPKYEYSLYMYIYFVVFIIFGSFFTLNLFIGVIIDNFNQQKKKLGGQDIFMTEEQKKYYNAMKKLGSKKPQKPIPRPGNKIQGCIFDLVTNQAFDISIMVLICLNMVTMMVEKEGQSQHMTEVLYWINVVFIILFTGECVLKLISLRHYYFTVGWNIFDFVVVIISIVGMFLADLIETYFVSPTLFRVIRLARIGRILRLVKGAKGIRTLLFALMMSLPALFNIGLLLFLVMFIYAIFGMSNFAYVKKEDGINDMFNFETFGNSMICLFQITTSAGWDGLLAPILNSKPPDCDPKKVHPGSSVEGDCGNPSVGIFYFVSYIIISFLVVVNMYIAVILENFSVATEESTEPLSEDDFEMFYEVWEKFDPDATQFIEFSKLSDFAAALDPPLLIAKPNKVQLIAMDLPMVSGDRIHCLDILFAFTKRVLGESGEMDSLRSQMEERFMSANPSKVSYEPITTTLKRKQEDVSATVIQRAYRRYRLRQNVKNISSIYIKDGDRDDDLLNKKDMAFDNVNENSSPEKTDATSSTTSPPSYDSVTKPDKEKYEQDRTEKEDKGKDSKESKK
- assay.name: Automated patch clamp (Qube 384), internal block of NaV1.7 in HEK293 cells
- Format: cell-based
- test.conditions: compound in internal solution, read-out: Nav1.7 Intracellular Inhibition (IC50)
- Text: NaV1.7 was expressed in HEK293 cells upon induction with tetracycline. […] Before experiments, cells were washed with DPBS (VWR, Radnor, Pa.), digested with Detachin (VWR Radnor, Pa.) and then triturated 10 times in CHO Serum-Free Media (VWR Radnor, Pa.) to resuspend the cells and to break apart cell aggregates. Cells were counted and the final concentration was set at 2-5 million cells per mL. […]
pIC50: −log10 of the molar value.
property: pIC50

> print(dat)
                                item.smiles  property           val
1  Cc1cccc(C)c1NC(=O)Cn1cc[n+](CC(=O)Nc2c(C)cccc2C)c1     pIC50  4.52 to 5.00
2     Cc1cccc(C)c1NC(=O)C[n+]1cccn1C1CCCCC1     pIC50        > 6.00
3    Cc1cccc(C)c1NC(=O)C[n+]1cccn1-c1ccccc1     pIC50  5.00 to 5.52
4      Cc1cccc(C)c1NC(=O)C[n+]1c(C)cc(C)n1C     pIC50        > 6.00
5  COC(=O)c1c(F)c[n+](CC(=O)Nc2c(C)cccc2C)cc1F     pIC50  5.00 to 5.52
6  Cc1cccc(C)c1NC(=O)C[n+]1ccc(C(N)=O)c(C(F)(F)F)c1     pIC50  5.00 to 5.52
7        Cc1cccc(C)c1NC(=O)C[n+]1cccn1CCC#N     pIC50  4.52 to 5.00
8    COc1cc(OC)c[n+](CC(=O)Nc2c(C)cccc2C)c1     pIC50  5.52 to 6.00
9       Cc1cccc(C)c1NC(=O)C[n+]1cccn1CC(C)C     pIC50  5.52 to 6.00
